experiment: Inhibition of rat liver Alpha-glucosidase II
property_label: IC50 (µM)
Answer format: numeric, µM implied, no suffix.

# lookup: IC50 of CCCCN1C[C@H](O)[C@@H](O)[C@H](O)[C@H]1CO
4.6

* * *

assay: Inhibition of rat liver Alpha-glucosidase I using Glc3Man9GlcNAc2 substrate
property_label: pIC50
Reminder that pIC50 is minus the log10 of a molar concentration.

# lookup: pIC50 of N[C@H]1C=C(CO)[C@@H](O)[C@H](O)[C@H]1O [VALIENAMINE]
3.11

* * *

Overview of reported IC50 across a group of molecules:
experiment: Inhibition of rat liver Alpha-glucosidase II using Glc1Man5GlcNAc1 substrate after 90 mins by NP-HPLC analysis
Answer format: numeric, µM implied, no suffix.

# lookup: IC50 of CO[C@H]1O[C@H](CO)[C@@H](O)[C@H](N[C@H]2C=C(CO)[C@@H](O)[C@H](O)[C@H]2O)[C@@H]1O
236

Subsequent entry: CO[C@H]1O[C@H](CO)[C@@H](O)[C@H](N[C@H]2C=C(CO)[C@@H](O)[C@H](O)[C@H]2O)[C@H]1O
143

* * *

assay: Inhibition of rat liver Alpha-glucosidase II using p-nitrophenyl alpha D-glucopyranoside substrate
property_label: pIC50
Reminder that pIC50 is minus the log10 of a molar concentration.

# lookup: pIC50 of N[C@H]1C=C(CO)[C@@H](O)[C@H](O)[C@H]1O [VALIENAMINE]
3.00

meta.source: ChEMBL document CHEMBL1821593
